Reference source: ChEMBL document CHEMBL3817805

- assay target: CDK2/Cyclin A2 (Homo sapiens)
- assay summary: Inhibition of recombinant human CDK2/cyclin A2 using fluoresceinyl-Ahx-Pro-Val-Lys-Arg-Arg-Leu-Phe-Gly as substrate incubated for 45 mins by fluorescence polarization assay
- Assay type: protein-complex assay
value kind: IC50

- compound: "CC(C)CC(CC(=O)NC(Cc1ccsc1)C(N)=O)NC(=O)[C@H](CCCNC(=N)N)NC(=O)c1ccc(CC2CCNCC2)cc1 (stereo partly drawn)"
  observed: "> 30 µM"
- compound: "CC(C)CC(CC(=O)N(C)[C@@H](Cc1ccccc1)C(N)=O)NC(=O)[C@H](CCCNC(=N)N)NC(=O)c1ccc(CN2CCNCC2)c(O)c1 (stereo partly drawn)"
  observed: "7.42 µM"
- compound: "CCN1CCN(Cc2ccc(C(=O)N[C@@H](CCCNC(=N)N)C(=O)NC(CC(=O)NC(Cc3ccsc3)C(N)=O)CC(C)C)cc2)[C@@H](C)C1 (stereo partly drawn)"
  observed: "6.78 µM"

====

Reported pIC50 is given for each of the following molecules.
- assay target: Cyclin-dependent kinase 4/cyclin D1 (Homo sapiens)
- Sequence (P11802 whole entry): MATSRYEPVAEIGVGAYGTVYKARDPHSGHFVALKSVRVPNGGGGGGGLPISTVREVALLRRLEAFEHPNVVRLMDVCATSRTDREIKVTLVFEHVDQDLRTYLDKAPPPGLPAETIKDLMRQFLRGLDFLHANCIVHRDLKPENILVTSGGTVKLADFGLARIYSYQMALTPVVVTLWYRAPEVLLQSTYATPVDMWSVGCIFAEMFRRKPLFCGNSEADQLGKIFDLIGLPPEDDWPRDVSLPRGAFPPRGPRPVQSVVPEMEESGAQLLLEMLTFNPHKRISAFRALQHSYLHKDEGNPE
- Sequence (P24385 whole entry): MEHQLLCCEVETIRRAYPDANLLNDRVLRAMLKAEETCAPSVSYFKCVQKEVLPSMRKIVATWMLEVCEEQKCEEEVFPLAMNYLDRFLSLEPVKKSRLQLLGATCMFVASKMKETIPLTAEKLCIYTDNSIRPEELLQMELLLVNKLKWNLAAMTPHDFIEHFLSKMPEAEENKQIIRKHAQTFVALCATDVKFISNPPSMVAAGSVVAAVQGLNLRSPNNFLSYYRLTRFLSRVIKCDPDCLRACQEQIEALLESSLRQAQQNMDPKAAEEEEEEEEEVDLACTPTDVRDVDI
- assay summary: Inhibition of recombinant human CDK4/cyclin D1 using fluoresceinyl-AhxPro-Val-Lys-Arg-Arg-Leu-(3ClPhe)-Gly as substrate incubated for 45 mins by fluorescence polarization assay
pIC50: −log10 of the molar value. Residues, ends and D or L forms follow the SMILES beside them.
value kind: pIC50

- molecule: "CCN1CCN(Cc2ccc(C(=O)N[C@@H](CCCNC(=N)N)C(=O)NC(CC(=O)NC(Cc3ccsc3)C(N)=O)CC(C)C)cc2)CC1 (stereo partly specified)"
  relational operator: "="
  observed: 4.13
- molecule: "CC[C@H](C)[C@H](NC(=O)[C@H](CC(C)C)NC(=O)[C@H](CCCNC(=N)N)NC(=O)c1ccc(CN2CCN(C)CC2)cc1)C(=O)N[C@@H](Cc1ccccc1)C(=O)O (HELM PEPTIDE1{[CN1CCN(Cc2ccc(C(=O)[*:2])cc2)CC1].R.L.I.F}$$$$V2.0)"
  relational operator: "="
  observed: 4.95
- molecule: "CC[C@H](C)[C@H](NC(=O)[C@H](CC(C)C)NC(=O)[C@H](CCCNC(=N)N)NC(=O)c1ccc(N2CCNCC2)cc1)C(=O)N[C@@H](Cc1ccccc1)C(=O)O (HELM PEPTIDE1{[O=C(c1ccc(N2CCNCC2)cc1)[*:2]].R.L.I.F}$$$$V2.0)"
  relational operator: "="
  observed: 4.62
- molecule: "CCCN1CCN(Cc2ccc(C(=O)N[C@@H](CCCNC(=N)N)C(=O)NC(CC(=O)NC(Cc3ccsc3)C(N)=O)CC(C)C)cc2)CC1 (stereo partly specified)"
  relational operator: "="
  observed: 5.07
- molecule: "CC(C)CC(CC(=O)N(C)[C@@H](Cc1ccccc1)C(N)=O)NC(=O)[C@H](CCCNC(=N)N)NC(=O)c1ccc(CN2CCNC[C@H]2C)cc1 (stereo partly specified)"
  relational operator: "="
  observed: 4.34
- molecule: "CCOc1cc(C(=O)N[C@@H](CCCNC(=N)N)C(=O)N[C@@H](CC(C)C)C(=O)N[C@H](C(=O)N[C@@H](Cc2ccccc2)C(=O)O)[C@@H](C)CC)ccc1CN1CCNCC1 (HELM PEPTIDE1{[CCOc1cc(C(=O)[*:2])ccc1CN1CCNCC1].R.L.I.F}$$$$V2.0)"
  relational operator: "="
  observed: 5.29
- molecule: "CCN1CCN(Cc2ccc(C(=O)N[C@@H](CCCNC(=N)N)C(=O)NC(CC(=O)NC(Cc3ccsc3)C(N)=O)CC(C)C)cc2)[C@@H](C)C1 (stereo partly specified)"
  relational operator: "="
  observed: 4.34
- molecule: "CC(C)CC(CC(=O)NC(Cc1ccsc1)C(N)=O)NC(=O)[C@H](CCCNC(=N)N)NC(=O)c1ccc(C=C2CCNCC2)cc1 (stereo partly specified)"
  relational operator: "<"
  observed: 4.00
- molecule: "CC(C)CC(CC(=O)NC(Cc1ccsc1)C(N)=O)NC(=O)[C@H](CCCNC(=N)N)NC(=O)c1ccc(C=C2CCN(C)CC2)cc1 (stereo partly specified)"
  relational operator: "="
  observed: 4.16
- molecule: "CCOc1cc(C(=O)N[C@@H](CCCNC(=N)N)C(=O)NC(CC(=O)N(C)[C@@H](Cc2ccccc2)C(N)=O)CC(C)C)ccc1CN1CCNCC1 (stereo partly specified)"
  relational operator: "="
  observed: 4.73
- molecule: "CC(C)C[C@H](NC(=O)[C@H](CCCNC(=N)N)NC(=O)c1ccc(CNC(=N)N)cc1)C(=O)N[C@@H](CC(N)=O)C(=O)N1CCC[C@@H]1C(=O)N[C@H](Cc1ccccc1)C(=O)N[C@@H](Cc1ccccc1)C(=O)O"
  relational operator: "="
  observed: 4.81

====

Each entry below carries its recorded pIC50.
- assay target: CDK2/Cyclin A2 (Homo sapiens, UniProt P24941)
- assay summary: Inhibition of recombinant human CDK2/cyclin A2 using fluoresceinyl-Ahx-Pro-Val-Lys-Arg-Arg-Leu-Phe-Gly as substrate incubated for 45 mins by fluorescence polarization assay
pIC50: −log10 of the molar value. Residues, ends and D or L forms follow the SMILES beside them.
value kind: pIC50

- compound: "CC(C)CC(CC(=O)N(C)[C@@H](Cc1ccccc1)C(N)=O)NC(=O)[C@H](CCCNC(=N)N)NC(=O)c1ccc(CN2CCNC[C@@H]2C)cc1 (some centres not stated)"
  value kind: "pIC50"
  relational operator: "="
  observed: 4.87
- compound: "CC(C)CC(CC(=O)NC(Cc1ccsc1)C(N)=O)NC(=O)[C@H](CCCNC(=N)N)NC(=O)c1ccc(C=C2CCN(C)CC2)cc1 (some centres not stated)"
  value kind: "pIC50"
  relational operator: "="
  observed: 4.58
- compound: "CCOc1cc(C(=O)N[C@@H](CCCNC(=N)N)C(=O)N[C@@H](CC(C)C)C(=O)N[C@H](C(=O)N[C@@H](Cc2ccccc2)C(=O)O)[C@@H](C)CC)ccc1CN1CCNCC1 (HELM PEPTIDE1{[CCOc1cc(C(=O)[*:2])ccc1CN1CCNCC1].R.L.I.F}$$$$V2.0)"
  value kind: "pIC50"
  relational operator: "="
  observed: 5.23
- compound: "CC[C@H](C)[C@H](NC(=O)[C@H](CC(C)C)NC(=O)[C@H](C)NC(=O)c1ccc(CN2CCNCC2)cc1)C(=O)N[C@@H](Cc1ccccc1)C(=O)O (HELM PEPTIDE1{[O=C(c1ccc(CN2CCNCC2)cc1)[*:2]].A.L.I.F}$$$$V2.0)"
  value kind: "pIC50"
  relational operator: "<"
  observed: 4.00
- compound: "CC(C)CC(CC(=O)NC(Cc1ccsc1)C(N)=O)NC(=O)[C@H](CCCNC(=N)N)NC(=O)c1ccc(CN2CCNC[C@@H]2C)c(O)c1 (some centres not stated)"
  value kind: "pIC50"
  relational operator: "="
  observed: 4.88
- compound: "CC(C)CC(CC(=O)NC(Cc1ccsc1)C(N)=O)NC(=O)[C@H](CCCNC(=N)N)NC(=O)c1ccc(C=C2CCNCC2)cc1 (some centres not stated)"
  value kind: "pIC50"
  relational operator: "="
  observed: 5.04
- compound: "CC(C)CC(CC(=O)NC(Cc1ccsc1)C(N)=O)NC(=O)[C@H](CCCNC(=N)N)NC(=O)c1ccc(CN(C)C2CCNCC2)cc1 (some centres not stated)"
  value kind: "pIC50"
  relational operator: "<"
  observed: 4.30
- compound: "CC[C@H](C)[C@H](NC(=O)[C@H](CC(C)C)NC(=O)[C@H](CCCNC(=N)N)NC(=O)c1ccc(CN2CCNCC2)c(O)c1)C(=O)N[C@@H](Cc1ccccc1)C(=O)O (HELM PEPTIDE1{[O=C(c1ccc(CN2CCNCC2)c(O)c1)[*:2]].R.L.I.F}$$$$V2.0)"
  value kind: "pIC50"
  relational operator: "="
  observed: 5.34
- compound: "CC(C)CC(CC(=O)N(C)[C@@H](Cc1ccccc1)C(N)=O)NC(=O)[C@H](CCCNC(=N)N)NC(=O)c1ccc(OC2CCNCC2)cc1 (some centres not stated)"
  value kind: "pIC50"
  relational operator: "="
  observed: 4.39
- compound: "CC(C)CC(CC(=O)NC(Cc1ccsc1)C(N)=O)NC(=O)[C@H](CCCNC(=N)N)NC(=O)c1ccc(CNC2CCNCC2)cc1 (some centres not stated)"
  value kind: "pIC50"
  relational operator: "<"
  observed: 4.00
- compound: "CC(C)CC(CC(=O)N(C)[C@@H](Cc1ccccc1)C(N)=O)NC(=O)[C@H](CCCNC(=N)N)NC(=O)c1ccc(CN2CCN(C3CCN(C)CC3)CC2)cc1 (some centres not stated)"
  value kind: "pIC50"
  relational operator: "="
  observed: 5.08
- compound: "CC[C@H](C)[C@H](NC(=O)[C@H](CC(C)C)NC(=O)[C@H](CCCNC(=N)N)NC(=O)c1ccc(CN2CCN(C)CC2)cc1)C(=O)N[C@@H](Cc1ccccc1)C(=O)O (HELM PEPTIDE1{[CN1CCN(Cc2ccc(C(=O)[*:2])cc2)CC1].R.L.I.F}$$$$V2.0)"
  value kind: "pIC50"
  relational operator: "="
  observed: 5.10
- compound: "CC[C@H](C)[C@H](NC(=O)[C@H](CC(C)C)NC(=O)[C@H](CCCNC(=N)N)NC(=O)c1ccc(CN2CCNCC2)cc1)C(=O)N[C@@H](Cc1ccccc1)C(=O)O (HELM PEPTIDE1{[O=C(c1ccc(CN2CCNCC2)cc1)[*:2]].R.L.I.F}$$$$V2.0)"
  value kind: "pIC50"
  relational operator: "="
  observed: 4.89
- compound: "CC(C)C[C@H](NC(=O)[C@H](CCCNC(=N)N)NC(=O)c1ccc(CNC(=N)N)cc1)C(=O)N[C@@H](CC(N)=O)C(=O)N1CCC[C@@H]1C(=O)N[C@H](Cc1ccccc1)C(=O)N[C@@H](Cc1ccccc1)C(=O)O"
  value kind: "pIC50"
  relational operator: "="
  observed: 6.16
- compound: "CCOc1cc(C(=O)N[C@@H](CCCNC(=N)N)C(=O)NC(CC(=O)N(C)[C@@H](Cc2ccccc2)C(N)=O)CC(C)C)ccc1CN1CCNCC1 (some centres not stated)"
  value kind: "pIC50"
  relational operator: "="
  observed: 4.65
- compound: "CC(C)CC(CC(=O)NC(Cc1ccsc1)C(N)=O)NC(=O)[C@H](CCCNC(=N)N)NC(=O)c1cc(OC2CCNCC2)cc(OC2CCNCC2)c1 (some centres not stated)"
  value kind: "pIC50"
  relational operator: "<"
  observed: 4.52
- compound: "CC(C)CC(CC(=O)N(C)[C@@H](Cc1ccccc1)C(N)=O)NC(=O)[C@H](CCCNC(=N)N)NC(=O)c1ccc(CN2CCNC[C@H]2C)cc1 (some centres not stated)"
  value kind: "pIC50"
  relational operator: "="
  observed: 4.65
- compound: "CCCN1CCN(Cc2ccc(C(=O)N[C@@H](CCCNC(=N)N)C(=O)NC(CC(=O)NC(Cc3ccsc3)C(N)=O)CC(C)C)cc2)CC1 (some centres not stated)"
  value kind: "pIC50"
  relational operator: "="
  observed: 4.50
- compound: "CC(C)C[C@H](NC(=O)[C@H](CCCNC(=N)N)NC(=O)c1ccc(CN2CCNCC2)cc1)C(=O)N[C@@H](CC(N)=O)C(=O)N1CCC[C@@H]1C(=O)N[C@H](Cc1ccccc1)C(=O)N[C@@H](Cc1ccccc1)C(=O)O"
  value kind: "pIC50"
  relational operator: "="
  observed: 5.28
- compound: "CCN1CCN(Cc2ccc(C(=O)N[C@@H](CCCNC(=N)N)C(=O)NC(CC(=O)NC(Cc3ccsc3)C(N)=O)CC(C)C)cc2)CC1 (some centres not stated)"
  value kind: "pIC50"
  relational operator: "="
  observed: 4.76
- compound: "CCCN1CCN(Cc2ccc(C(=O)N[C@@H](CCCNC(=N)N)C(=O)NC(CC(=O)NC(Cc3ccsc3)C(N)=O)CC(C)C)cc2)[C@@H](C)C1 (some centres not stated)"
  value kind: "pIC50"
  relational operator: "="
  observed: 4.65
- compound: "CC(C)CC(CC(=O)NC(Cc1ccsc1)C(N)=O)NC(=O)[C@H](CCCNC(=N)N)NC(=O)c1ccc(CN(C)C2CCCNC2)cc1 (some centres not stated)"
  value kind: "pIC50"
  relational operator: "="
  observed: 4.51
